Where these numbers come from: patent US10160763B2

Target: WDR5 (Δ23, residues 24-334) (Homo sapiens, UniProt P61964)
Experiment: biochemical
Details: Kd (M), FPA-based binding affinity at the WDR5 WIN site; IC50 converted to Kd by modified Cheng-Prusoff equation; average of two experiments
measurement_name: Kd (M)
Unit M implied. Number only.

Here are 4 compounds together with their reported answers.
[
  {
    "compound": "O=C(Cc1cccc(Cl)c1Cl)NCc1cccc(-c2cn3c(n2)CCC3)c1 [B149]",
    "Kd, M": "8.75e-07"
  },
  {
    "compound": "O=C(Cc1ccc(F)c(Cl)c1)NCc1cc(-c2cn3c(n2)CCC3)ccc1OC1CCC1 [B197]",
    "Kd, M": "2.17e-06"
  },
  {
    "compound": "O=C(NCc1cccc(-c2cn3c(n2)CCC3)c1)c1cnco1 [B170]",
    "Kd, M": "9.24e-07"
  },
  {
    "compound": "O=C(NCc1cccc(-c2cn3c(n2)CCC3)c1)C1CCCN(C(=O)C2CC2)C1 (stereo not shown) [B187]",
    "Kd, M": "9.47e-07"
  }
]

Now for a further compound.
Quick note, Kd for COc1cccc(C(=O)N(Cc2cc(-c3cn4c(n3)CCC4)ccc2F)CC2CC2)c1 [B90] landed at 4.24e-05

---

Target: WDR5 (Δ23, residues 24-334) (Homo sapiens, UniProt P61964)
Assay: biochemical
Conditions: Kd (M), FPA-based binding affinity at the WDR5 WIN site; IC50 converted to Kd by modified Cheng-Prusoff equation; average of two experiments
measurement_name: Kd (M)
// units = M; emit number, no label

Some solved cases for reference:
[
  {
    "compound": "COc1ccc(C(=O)N(Cc2cccc(-c3cn4c(n3)CCC4)c2)Cc2ccc(F)c(F)c2)cc1OC",
    "unit_spec": "M",
    "value": "7.51e-07"
  },
  {
    "compound": "CCC(C1CC1)N(Cc1cccc(-c2cn3c(n2)CCC3)c1)C(=O)c1cccc(OC)c1 (stereo not drawn)",
    "unit_spec": "M",
    "value": "8.63e-07"
  },
  {
    "compound": "O=C(/C=C/c1ccccc1)NCc1cccc(-c2cn3c(n2)CCC3)c1",
    "unit_spec": "M",
    "value": "1.19e-06"
  }
]

Noted for "O=C(Cc1ccc(Cl)nc1)NCc1cccc(-c2cn3c(n2)CCC3)c1" : its Kd reads 8.7e-08

get_value(item= "COc1cccc(C(=O)NCc2cc(-c3cn4c(n3)CCC4)ccc2Oc2ccccc2)c1" , readout=Kd) returns 1.8e-08

Lab note: measured Kd of "CC(C)N(Cc1cccc(-c2cn3c(n2)CCC3)c1)C(=O)Cc1cc(Cl)cc(Cl)c1" was 1.9e-06

Reported Kd for COc1cc(C(=O)NC(c2cccc(-c3cn4c(n3)CCC4)c2)C(C)C)ccc1C (stereo not drawn) was 2.04e-07

The compound "COc1ccc(C(=O)N(Cc2cc(Cl)cc(-c3cn4c(n3)CCC4)c2)CC2CC2)cc1OC" showed Kd equal to 1.25e-07

The reported value for "O=C(Cc1cccc(Cl)c1)NCc1cccc(-c2cn3c(n2)CCC3)c1" in terms of Kd is 6e-06

Reported Kd ( "COc1cccc(C(=O)N(Cc2cc(-c3cn4c(n3)CCC4)ccc2C)CC2CC2)c1" ) = 3.35e-07

Input "COc1ccc(C(=O)N(CCc2ccccc2)Cc2cccc(-c3cn4c(n3)CCC4)c2)cc1OC" . Output Kd: 4.46e-06

// recorded Kd for "O=C(NCc1cccc(-c2cn3c(n2)CCC3)c1)c1ccc(F)c(F)c1" : 5.8e-08

Input "O=C(NCc1cccc(-c2cn3c(n2)CCC3)c1)c1ccc(Cl)nc1" . Output Kd: 1.86e-06

Lookup result for CCC(=O)N1CCCC(C(=O)NCc2cccc(-c3cn4c(n3)CCC4)c2)C1 (stereo not drawn) ; measured Kd: 1e-05

So for "O=C(Cc1ccc(Cl)c(Cl)c1)NCc1cc(-c2cn3c(n2)CCC3)ccc1N1CCCC1" , the logged Kd turned out to be 7.6e-08

Field Kd (entry "O=C(Cc1ccc(Cl)c(Cl)c1)NCc1cc(-c2cn3c(n2)CCC3)ccc1OC1CCCC1" ) reads 1e-05

For this compound ( "COc1cc(C(=O)N(Cc2cc(-c3cn4c(n3)CCC4)ccc2N2CCCC2)CC2CC2)ccc1C" ), measured Kd is 3.62e-06

Per the records, this compound ( CC1CN(c2ccc(-c3cn4c(n3)CCC4)cc2CNC(=O)Cc2ccc(Cl)c(Cl)c2)CC(C)O1 (stereo not drawn) ) has Kd equal to 3.32e-06
